assay: qHTS assay for cell viability of the p53RE-bla HCT-116 cell line (AID 743292); conditions: p53RE-bla HCT-116 viability, ATP luminescence, 16 h; series mostly up to 95 µM; also: nearly all actives have a fitted effect of over 55% in size
Inconclusive results are not listed. Active and inactive are the calls of the source. Calls follow the shape of the dose curve; as a rule, active = well fitted cell-killing curve with a large enough effect; inconclusive = small, poorly fitted or top-dose-only effect, or effect the other way; inactive = flat fitted curve, though single readings scatter.
# valid calls are TRUE for active, FALSE for inactive; nothing else

Input: State the result this test recorded for C[C@]12C=CC(=O)C=C1CC[C@@H]1[C@@H]2C(=O)C[C@@]2(C)[C@H]1CC[C@]2(O)C(=O)CO .
Output: FALSE

Input: State the result this test recorded for CC(=O)[C@H]1CC[C@H]2[C@@H]3CCC4=CC(=O)CC[C@]4(C)[C@H]3CC[C@]12C .
Output: FALSE

Input: State the result this test recorded for O=C(N[C@H](CO)[C@H](O)c1ccc([N+](=O)[O-])cc1)C(Cl)Cl .
Output: FALSE

Input: State the result this test recorded for S=P(N1CC1)(N1CC1)N1CC1 .
Output: FALSE

Input: State the result this test recorded for Cc1nnc(NS(=O)(=O)c2ccc(N)cc2)s1 .
Output: FALSE

Input: State the result this test recorded for COc1ccc2cc3[n+](cc2c1OC)CCc1cc2c(cc1-3)OCO2 .
Output: FALSE

Input: State the result this test recorded for CC[C@H](C)C(=O)O[C@H]1C[C@@H](C)C=C2C=C[C@H](C)[C@H](CC[C@@H]3C[C@@H](O)CC(=O)O3)[C@H]21 .
Output: FALSE

Input: State the result this test recorded for Cc1ncc([N+](=O)[O-])n1CCO .
Output: FALSE

Input: State the result this test recorded for CCc1cc(C(N)=S)ccn1 .
Output: FALSE

Input: State the result this test recorded for N[C@@H](Cc1ccc(O)c(O)c1)C(=O)O .
Output: FALSE

Input: State the result this test recorded for Nc1nc(N)c2nc(CNc3ccc(C(=O)NC(CCC(=O)O)C(=O)O)cc3)cnc2n1 (stereo unspecified) .
Output: TRUE

* * *

Hi there, I'd appreciate the recorded parasite growth remaining, % of DMSO control (lower = more inhibition) for every entry that follows.
test: qHTS profiling of the MIPE4 collection as inhibitors of Plasmodium falciparum (DD2) proliferation (AID 743345); conditions: P. falciparum Dd2 in erythrocytes, SYBR Green DNA, 72 h; at 28.5 µM (top of the series) unless noted
// unit must come after the numeric part

Input: Report parasite growth remaining, % of DMSO control (lower = more inhibition) for Nc1nc(=S)c2[nH]cnc2[nH]1 please.
Output: 101%

Input: Report parasite growth remaining, % of DMSO control (lower = more inhibition) for CN(C)c1ccc(C(=C2C=CC(=[N+](C)C)C=C2)c2ccc(N(C)C)cc2)cc1 please.
Output: 5.08%

Input: Report parasite growth remaining, % of DMSO control (lower = more inhibition) for O=c1oc2c(O)c(O)cc3c(=O)oc4c(O)c(O)cc1c4c23 please.
Output: 7.22%

Input: Report parasite growth remaining, % of DMSO control (lower = more inhibition) for CCCc1cc(C(N)=S)ccn1 please.
Output: 65.8%

Input: Report parasite growth remaining, % of DMSO control (lower = more inhibition) for CCOCC(O)COc1ccc(NC(=O)CC[S+](C)C)cc1 (stereo not given) please.
Output: 103%

Input: Report parasite growth remaining, % of DMSO control (lower = more inhibition) for NC1(c2ccc(-c3nc4ccn5c(=O)[nH]nc5c4cc3-c3ccccc3)cc2)CCC1 please.
Output: 17.9%

Input: Report parasite growth remaining, % of DMSO control (lower = more inhibition) for O=C(O)c1cn(C2CC2)c2cc(N3CCNCC3)c(F)cc2c1=O please.
Output: 85.5%

Input: Report parasite growth remaining, % of DMSO control (lower = more inhibition) for CN(CCOc1ccc(CC2SC(=O)NC2=O)cc1)c1ccccn1 (stereo not given) please.
Output: 93.4%

Input: Report parasite growth remaining, % of DMSO control (lower = more inhibition) for Cc1ccc(S(=O)(=O)N[C@@H](Cc2ccccc2)C(=O)CCl)cc1 please.
Output: 91.3%

Input: Report parasite growth remaining, % of DMSO control (lower = more inhibition) for NNC(=O)c1ccncc1 please.
Output: 8.99%
